Tested system: Vascular endothelial growth factor receptor 1 (Homo sapiens) (UniProt P17948)
Sequence (P17948 whole entry): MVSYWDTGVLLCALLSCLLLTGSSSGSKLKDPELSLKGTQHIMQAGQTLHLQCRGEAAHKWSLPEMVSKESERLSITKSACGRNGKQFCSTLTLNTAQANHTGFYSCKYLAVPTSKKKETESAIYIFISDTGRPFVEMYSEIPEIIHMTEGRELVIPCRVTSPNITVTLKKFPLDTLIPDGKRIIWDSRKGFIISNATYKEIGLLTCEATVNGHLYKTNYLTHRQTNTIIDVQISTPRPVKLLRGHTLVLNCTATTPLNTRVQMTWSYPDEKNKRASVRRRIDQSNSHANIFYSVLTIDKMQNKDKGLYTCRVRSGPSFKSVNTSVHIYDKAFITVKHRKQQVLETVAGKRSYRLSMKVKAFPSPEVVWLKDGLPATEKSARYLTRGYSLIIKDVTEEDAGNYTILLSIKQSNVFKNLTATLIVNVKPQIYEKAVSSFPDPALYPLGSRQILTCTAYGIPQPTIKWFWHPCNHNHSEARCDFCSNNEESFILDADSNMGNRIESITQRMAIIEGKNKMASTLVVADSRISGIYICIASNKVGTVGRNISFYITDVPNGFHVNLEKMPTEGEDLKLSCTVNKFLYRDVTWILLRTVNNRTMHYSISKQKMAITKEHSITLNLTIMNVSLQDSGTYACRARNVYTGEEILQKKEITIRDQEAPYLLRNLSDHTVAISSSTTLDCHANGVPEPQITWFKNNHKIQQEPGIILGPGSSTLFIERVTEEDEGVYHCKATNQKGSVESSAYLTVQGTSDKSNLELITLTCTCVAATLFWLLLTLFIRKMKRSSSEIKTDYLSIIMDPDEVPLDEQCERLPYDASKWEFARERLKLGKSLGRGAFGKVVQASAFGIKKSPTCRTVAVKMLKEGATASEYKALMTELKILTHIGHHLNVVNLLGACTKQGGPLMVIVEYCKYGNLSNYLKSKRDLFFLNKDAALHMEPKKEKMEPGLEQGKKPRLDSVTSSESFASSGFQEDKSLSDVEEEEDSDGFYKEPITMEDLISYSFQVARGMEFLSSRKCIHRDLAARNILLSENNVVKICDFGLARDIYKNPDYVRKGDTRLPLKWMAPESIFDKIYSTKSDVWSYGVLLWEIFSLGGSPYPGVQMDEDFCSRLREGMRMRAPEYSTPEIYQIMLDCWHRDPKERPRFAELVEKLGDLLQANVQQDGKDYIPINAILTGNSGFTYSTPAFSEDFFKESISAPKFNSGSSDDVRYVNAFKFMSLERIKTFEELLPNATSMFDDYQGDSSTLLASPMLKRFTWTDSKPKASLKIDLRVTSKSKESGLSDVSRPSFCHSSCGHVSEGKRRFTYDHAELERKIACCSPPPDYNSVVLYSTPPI
Recorded conditions: at 1 µM
Parameter: residual activity (%)
One number for each entry, in %.

Worked cases, answers included:
1. O=c1[nH]c2ccccc2n1C1CCN(Cc2ccc(-c3nc4cc5[nH]cnc5cc4nc3-c3ccccc3)cc2)CC1    103
2. CC(C)(C)c1cc(C=C(C#N)C#N)cc(Br)c1O    102

Field: residual activity. Fill in for each record below.
1. C[S+]([O-])c1ccc(-c2nc(-c3ccc(F)cc3)c(-c3ccncc3)[nH]2)cc1 (centres undefined)
2. COC(=O)[C@@]1(O)C[C@H]2O[C@]1(C)n1c3ccccc3c3c4c(c5c6ccccc6n2c5c31)C(=O)NC4
3. CCn1cnc2c(Nc3cccc(Cl)c3)nc(N[C@@H]3CCCC[C@@H]3N)nc21
4. N/C(=N\[N+](=O)[O-])N/N=C\c1ccc(-c2cccc([N+](=O)[O-])c2)o1

Key:
[101, 0, 63, 86]

Go through the list and state residual activity for each entry.
1. COc1cc(OC)c(/C=C2\C(=O)Nc3ccccc32)c(OC)c1
2. O=C1Nc2ccc3ncsc3c2/C1=C/c1c[nH]cn1
3. CC(C)[C@H](CO)Nc1nc(Nc2cccc(Cl)c2)c2ncn(C(C)C)c2n1

Key:
1. 92
2. 1
3. 88

###

So I've got a bunch of compounds here, and I need their residual activity values.
Tested system: Homeodomain-interacting protein kinase 2 (Homo sapiens)
Recorded conditions: at 1 µM
One number for each entry, in %.

Could you report residual activity for every entry in the following list?
1. COC(=O)[C@@]1(O)C[C@H]2O[C@]1(C)n1c3ccccc3c3c4c(c5c6ccccc6n2c5c31)C(=O)NC4
2. CC(C)[C@H](CO)Nc1nc(Nc2cccc(Cl)c2)c2ncn(C(C)C)c2n1
3. COc1cc(OC)c(/C=C2\C(=O)Nc3ccccc32)c(OC)c1
4. c1cc(-c2cnn3cc(-c4ccc(OCCN5CCCCC5)cc4)cnc23)ccn1
5. CC(C)(C)c1cc(C=C(C#N)C#N)cc(Br)c1O
6. CCn1cnc2c(Nc3cccc(Cl)c3)nc(N[C@@H]3CCCC[C@@H]3N)nc21
7. O=C1NC(=O)c2c1c1c3ccccc3n3c1c1c2c2ccccc2n1C1CCC3O1
8. O=c1[nH]c2ccccc2n1C1CCN(Cc2ccc(-c3nc4cc5[nH]cnc5cc4nc3-c3ccccc3)cc2)CC1

Key:
1: 22; 2: 88; 3: 104; 4: 62; 5: 101; 6: 85; 7: 42; 8: 98

Parameters: items (list). Returns: residual activity for each item.
1. O=C1Nc2ccc3ncsc3c2/C1=C/c1c[nH]cn1
2. C[S+]([O-])c1ccc(-c2nc(-c3ccc(F)cc3)c(-c3ccncc3)[nH]2)cc1 (stereo not given)

Key:
32
110

###

Tested system: Mitogen-activated protein kinase 8 (Homo sapiens) (UniProt P45983)
Sequence (P45983 whole entry): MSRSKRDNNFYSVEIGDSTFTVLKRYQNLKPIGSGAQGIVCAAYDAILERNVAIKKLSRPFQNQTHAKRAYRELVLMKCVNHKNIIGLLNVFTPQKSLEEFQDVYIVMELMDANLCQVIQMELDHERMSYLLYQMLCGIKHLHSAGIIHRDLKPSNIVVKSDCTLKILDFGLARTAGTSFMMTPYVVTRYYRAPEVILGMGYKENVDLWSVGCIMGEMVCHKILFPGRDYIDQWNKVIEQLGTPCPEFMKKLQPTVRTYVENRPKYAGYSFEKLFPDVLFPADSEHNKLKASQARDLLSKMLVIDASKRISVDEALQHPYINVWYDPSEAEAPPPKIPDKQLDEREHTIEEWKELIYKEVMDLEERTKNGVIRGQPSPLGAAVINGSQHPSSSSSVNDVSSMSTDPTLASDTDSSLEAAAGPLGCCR
Recorded conditions: at 10 µM
Description: Millipore: Percentage of residual kinase activity of MAPK8 at 10uM relative to control. Control inhibitor: Jnk Inhibitor II at 100.0uM. Buffer: 50 mM Tris pH 7.5, 0.1 mM EGTA, 0.1% ? -mercaptoethanol
Parameter: residual activity (%)
Answers are plain numbers, in %.

Look over these answered cases.
1. O=[N+]([O-])/C=C/c1ccc2c(c1)OCO2    102
2. O=c1[nH]c2ccccc2n1C1CCN(Cc2ccc(-c3nc4cc5[nH]cnc5cc4nc3-c3ccccc3)cc2)CC1    86
3. c1cc(-c2cnn3cc(-c4ccc(OCCN5CCCCC5)cc4)cnc23)ccn1    106
4. O=C1c2ccccc2-c2nc3nnnn3nc21    83
5. CC(C)(C)c1cc(C=C(C#N)C#N)cc(Br)c1O    110

Batch lookup, residual activity per entry.
1. COc1ccc2c(c[n+](C)c3c4cc5c(cc4ccc23)OCO5)c1OC
2. C[S+]([O-])c1ccc(-c2nc(-c3ccc(F)cc3)c(-c3ccncc3)[nH]2)cc1 (centres undefined)
3. COc1cc2ncnc(Nc3ccc(OCc4ccccc4)cc3)c2cc1OC
4. CCc1nc(-c2ccc(OC)cc2)[nH]c1-c1ccncc1

Key:
1: 64; 2: 95; 3: 101; 4: 106

###

Tested system: Protein kinase C iota type (Homo sapiens)
Recorded conditions: at 10 µM
Parameter: residual activity (%)
Give bare numbers, in %.

Example entries and their recorded answers appear below.
1) O=c1[nH]c2ccccc2n1C1CCN(Cc2ccc(-c3nc4cc5[nH]cnc5cc4nc3-c3ccccc3)cc2)CC1    90
2) O=[N+]([O-])/C=C/c1ccc2c(c1)OCO2    76
3) c1cc(-c2cnn3cc(-c4ccc(OCCN5CCCCC5)cc4)cnc23)ccn1    86

Batch lookup, residual activity per entry.
1. O=C1Nc2ccc3ncsc3c2/C1=C/c1c[nH]cn1
2. CCc1nc(-c2ccc(OC)cc2)[nH]c1-c1ccncc1

Key:
1. 73
2. 105

###

Provide the reported residual activity of each item.
Tested system: Calcium/calmodulin-dependent protein kinase type II subunit gamma (Homo sapiens)
Recorded conditions: at 10 µM
Answers are plain numbers, in %.

Below, 4 compounds whose answers are already recorded.
1. O=[N+]([O-])/C=C/c1ccc2c(c1)OCO2    100
2. CC(C)[C@H](CO)Nc1nc(Nc2cccc(Cl)c2)c2ncn(C(C)C)c2n1    42
3. COc1cc2ncnc(Nc3ccc(OCc4ccccc4)cc3)c2cc1OC    93
4. COc1cc(OC)c(/C=C2\C(=O)Nc3ccccc32)c(OC)c1    96

Below are some compounds; for each one, tell me its residual activity.
1. O=C1c2ccccc2-c2nc3nnnn3nc21
2. C[S+]([O-])c1ccc(-c2nc(-c3ccc(F)cc3)c(-c3ccncc3)[nH]2)cc1 (stereo not given)
3. c1cc(-c2cnn3cc(-c4ccc(OCCN5CCCCC5)cc4)cnc23)ccn1
4. O=C1Nc2ccc3ncsc3c2/C1=C/c1c[nH]cn1
5. CC(C)(C)c1cc(C=C(C#N)C#N)cc(Br)c1O
6. COc1ccc2c(c[n+](C)c3c4cc5c(cc4ccc23)OCO5)c1OC

Key:
105
100
7
-1
55
70

###

Tested system: Calcium/calmodulin-dependent protein kinase type II subunit gamma (Homo sapiens)
Recorded conditions: at 1 µM
Would you mind telling me the reported residual activity of each entry?
Numbers only, in %.

Below: 5 molecules and their reported residual activity.
1) O=C1Nc2ccc3ncsc3c2/C1=C/c1c[nH]cn1    21
2) C[S+]([O-])c1ccc(-c2nc(-c3ccc(F)cc3)c(-c3ccncc3)[nH]2)cc1 (stereo unspecified)    103
3) c1cc(-c2cnn3cc(-c4ccc(OCCN5CCCCC5)cc4)cnc23)ccn1    39
4) O=c1[nH]c2ccccc2n1C1CCN(Cc2ccc(-c3nc4cc5[nH]cnc5cc4nc3-c3ccccc3)cc2)CC1    104
5) COc1cc(OC)c(/C=C2\C(=O)Nc3ccccc32)c(OC)c1    105

Please give residual activity for each item listed below.
1. CC(C)(C)c1cc(C=C(C#N)C#N)cc(Br)c1O
2. COc1cc2ncnc(Nc3ccc(OCc4ccccc4)cc3)c2cc1OC

Key:
102
109

Provide each entry's residual activity from the list below.
1. CC(C)[C@H](CO)Nc1nc(Nc2cccc(Cl)c2)c2ncn(C(C)C)c2n1
2. CCn1cnc2c(Nc3cccc(Cl)c3)nc(N[C@@H]3CCCC[C@@H]3N)nc21
3. O=C1NC(=O)c2c1c1c3ccccc3n3c1c1c2c2ccccc2n1C1CCC3O1
4. COC(=O)[C@@]1(O)C[C@H]2O[C@]1(C)n1c3ccccc3c3c4c(c5c6ccccc6n2c5c31)C(=O)NC4

Key:
[100, 43, 0, 1]

###

Tested system: Serine/threonine-protein kinase Sgk3 (Homo sapiens) (UniProt Q96BR1)
Sequence (Q96BR1 whole entry): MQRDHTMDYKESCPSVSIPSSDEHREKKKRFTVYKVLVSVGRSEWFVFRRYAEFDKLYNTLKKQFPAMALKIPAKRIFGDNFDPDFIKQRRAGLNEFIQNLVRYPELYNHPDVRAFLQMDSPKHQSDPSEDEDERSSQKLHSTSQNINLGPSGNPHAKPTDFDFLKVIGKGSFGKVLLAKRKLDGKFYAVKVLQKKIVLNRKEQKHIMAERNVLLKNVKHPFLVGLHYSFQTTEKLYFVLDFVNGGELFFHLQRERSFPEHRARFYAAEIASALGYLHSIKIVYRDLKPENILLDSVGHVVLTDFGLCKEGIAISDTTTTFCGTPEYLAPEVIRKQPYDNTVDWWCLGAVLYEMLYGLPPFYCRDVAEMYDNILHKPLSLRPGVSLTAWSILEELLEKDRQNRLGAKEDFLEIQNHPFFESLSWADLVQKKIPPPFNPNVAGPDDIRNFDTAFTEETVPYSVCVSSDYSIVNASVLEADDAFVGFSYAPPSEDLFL
Recorded conditions: at 1 µM
Please provide measured residual activity for the entries that follow.
Numbers only, in %.

1. CC(C)(C)n1nc(Cc2cccc3ccccc23)c2c(N)ncnc21    106
2. NC(=O)Nc1sc(-c2ccc(F)cc2)cc1C(N)=O    93
3. Nc1ncnc2c1c(-c1ccc(Oc3ccccc3)cc1)cn2C1CCCC1    104
4. O=C1NC(=O)/C(=C/c2ccc3c(c2)OC(F)(F)O3)S1    109
5. COc1cc2ncnc(Nc3ccc(OCc4ccccc4)cc3)c2cc1OC    115
6. N/C(=N\[N+](=O)[O-])N/N=C\c1ccc(-c2cccc([N+](=O)[O-])c2)o1    127
7. Nc1nc(Nc2ccc(S(N)(=O)=O)cc2)nn1C(=O)c1c(F)cccc1F    106
8. COc1cc2ncnc(Nc3ccc(NC(=O)c4ccccc4)cc3)c2cc1OC    96
9. O=C1Nc2ccc3ncsc3c2/C1=C/c1c[nH]cn1    73
10. O=C1c2ccccc2-[n+]2ccc3c([nH]c4ccccc43)c21    99

Attention now shifts to the item below.
Exercise: Give its residual activity value. Item: O=Nc1c(-c2c(O)[nH]c3ccccc23)[nH]c2ccccc12
Key: 89

###

Assign residual activity to each entry below.
Tested system: Serine/threonine-protein kinase Nek7 (Homo sapiens)
Recorded conditions: at 10 µM
Description: Millipore: Percentage of residual kinase activity of NEK7 at 10uM relative to control. Control inhibitor: Phosphoric acid* at 0.3uM. Buffer: 8 mM MOPS pH 7.0, 0.2 mM EDTA
Numbers only, in %.

Check out these entries, answers already filled in.
1. CC(C)(C)c1cc(C=C(C#N)C#N)cc(Br)c1O    116
2. COc1ccc2c(c[n+](C)c3c4cc5c(cc4ccc23)OCO5)c1OC    137
3. C[S+]([O-])c1ccc(-c2nc(-c3ccc(F)cc3)c(-c3ccncc3)[nH]2)cc1 (stereo unspecified)    116
4. O=C1c2ccccc2-c2nc3nnnn3nc21    105
5. O=C1Nc2ccc3ncsc3c2/C1=C/c1c[nH]cn1    63

Exercise: Query (compound): COC(=O)[C@@]1(O)C[C@H]2O[C@]1(C)n1c3ccccc3c3c4c(c5c6ccccc6n2c5c31)C(=O)NC4 ; field requested: residual activity
Key: 95

// provenance: ChEMBL document CHEMBL2218924
